Test system: K4 kissing-loop RNA reporter;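 also: bound reporter read as fluorescence of individual clusters on recovered sequencing chips by microscopy, with normalized cluster intensities fitted with a binding model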
protocol summary: apparent KD of K4 kissing-loop reporter; higher = weaker reporter binding
run parameters: Eterna round: R107; input ligand: FMN 200 uM
measurement kind: apparent KD of K4 kissing-loop reporter (nM)
Response body: numeric value in nM, unit text excluded.

Lookup: For the sequence AAGGCCGCGCGGUGAUGUUUCAUCGCCGCCCGAGGACCGGUACGGCCGCCACUCGGAUAUAUCGCAGUGAUGUUGCUCUAUAUCA [Exclusion - Tryptophan A] , give its reported apparent KD of K4 kissing-loop reporter.
Found: 160

Lookup: For the sequence "GCCGUAGAUGGAAGGAGCGUGAUAAGUGAAUUAUCCAGUGAUGUUGGAUCUUAGAUAGGAUCACAGGUAGGUCGCCAUCUACGGC" , give its reported apparent KD of K4 kissing-loop reporter.
Found: 244

Lookup: For the sequence CCUAUCUCAUACGAUACCAGUGAAUUUAUAUUUAUUAGCAGUGAUGUUGCAUUCCAAGUACACCCUUGGCAGCGUAUGGGAUAGG [Ex Theophylline B K4 22] , give its reported apparent KD of K4 kissing-loop reporter.
Found: 147

Lookup: For the sequence UUUUAUAACCGAAGGAGCGCGUGGGCGCAGUGAUGUUGCGCCCGACAUCACUUCAACUUAACGCAGGUAGGUCGCGGUUUUAAUA [Arginine B (Excl) V2] , give its reported apparent KD of K4 kissing-loop reporter.
Found: 157

Lookup: For the sequence AAUAAUAAUAAAUAUAGAUUGAUGAGGAAACGAGGACCGGUACGGCCGCCACUCGAGUGAUGUUCGAGAACCUCAUCAAUCAUAA [AK4.7 Exc Tryptophan A] , give its reported apparent KD of K4 kissing-loop reporter.
Found: 171

Lookup: For the sequence AGGUCCGAGCCCGGAAGGGCUCGGACCUGUUAGGAUAUGACGUUAUUCAGAAGGGAUGGGUGGAGUGAUGUUCCACCCGCAAGGG [#2 Same State - FMN A Attempt #9 (HarryS)] , give its reported apparent KD of K4 kissing-loop reporter.
Found: 70

Lookup: For the sequence GCGAAGAAGGUUGAUACCAGUCUUGCGUGUCAAGCGCCAGUGAUGUUGGGCCUGUAGAUCGACCCUUGGCAGCAACCUCGAAAUG [theeternabot_sameState_KL_Theo_B_28] , give its reported apparent KD of K4 kissing-loop reporter.
Found: 836

Lookup: For the sequence GCAUAGGCCCAUCGGAAUUCGAGACCAGCACGAGGACCGGUACGGCCGCCACUCGUGCAGUGAUGUUGCACGAUUGGGAAACCGC [Beanveceti] , give its reported apparent KD of K4 kissing-loop reporter.
Found: 115

Lookup: For the sequence CUGACCAACAGCGAUACCAGUGUGGAGUGAUGUUCCCUGGUCCGGGCUGAUGUUCCCUUGCGCCCUUGGCAGCGCAGAAGCAGGU [Exclusion Theophylline B GF 13] , give its reported apparent KD of K4 kissing-loop reporter.
Found: 433

Lookup: For the sequence UGAUACCAGACUGAUACCAGCUAGUGAUGUUAGCUGAAACAGGAACAGGCAAAGCCUGCUAGCCCUUGGCAGCAGUCUGGUAUCU [TheoBX 11 #SwitchBubble #StaticStem] , give its reported apparent KD of K4 kissing-loop reporter.
Found: 91.5

Lookup: For the sequence GACAUCUAUCGCCGAUAGUGUUUAUCUUGGGAGGAUAUGUCAGCGGACAGAAGGCCCAGUGAUGUUGGGUAGAUGACCGUUGCCU [Orerditi] , give its reported apparent KD of K4 kissing-loop reporter.
Found: 337

Lookup: For the sequence GCAGUGAUGUUGCUGAUGUACAGUGGGAUACGAGGACCGGUACGGCCGCCACUCGUACAGAAUUUGUUAAUACAUCGAUAAGUGA [XV] , give its reported apparent KD of K4 kissing-loop reporter.
Found: 377
